Test system: EKVX NSCLC
assay.method.text: NCI tumour cell line growth inhibition, 48 h
Listed next: entries and their corresponding TGI.

Worked examples, 3 compounds total:
# compound, TGI
measured = [
    ("CC(=O)OC12CC(C)C3(O)C4C=C(C)C(=O)[C@@]4(O)CC(CO)=C[C@H]3C1C2(C)C (some centres undefined)", "> 1000 µM"),
    ("Cc1ccccc1C(C(=O)NC1CCCCC1)N(C(=O)Cn1ccnc1C)c1cccc(F)c1 (centres undefined)", "> 100 µM"),
    ("CCC(C)C1(O)OC2CC3(C)OC(=CC3=O)/C(C)=C\\C3OC(=O)C1(C)C32 (centres undefined)", "32.2 µM"),
]

Now examine the next entry.
Incoming: Item under review: COc1cc(-c2nc3nc(N4CCN(C)CC4)ccc3[nH]2)c(OC)c2[nH]c(COC(C)=O)nc12 . Reported TGI?
Outgoing: > 100 µM

----------
Test system: OVCAR-5 ovarian
assay.method.text: NCI tumour cell line growth inhibition, 48 h
// values below are reported GI50

# smi, GI50
rows = [
    ("COc1ccc(-c2csc3c2-n2cccc2C3=O)cc1O", "1.5 µM"),
    ("CCC(=O)c1ccc2c(c1)N(CCCN1CCN(CCO)CC1)c1ccccc1S2", "15.7 µM"),
    ("O=C1C=CC(=O)c2c1ncc1c2nc2sccn21", "19.8 µM"),
    ("Cc1cc(NC(=O)NC(=O)c2ccccc2NC(=O)CN)ccc1Oc1ncc(Br)cn1", "0.541 µM"),
    ("COc1cc2c(cc1OCCCN1CCN(c3cc(=O)oc4c(C)c(OC)ccc34)CC1)N=C[C@@H]1CCCN1C2=O", "1.34 µM"),
]

Incoming: What value of GI50 on OVCAR-5 ovarian does Cc1cn2c(=O)n(c1=O)Cc1ccccc1C2 have?
Outgoing: > 100 µM

Incoming: Checklist item: GI50 tested on OVCAR-5 ovarian, entry COc1ccc(-c2cc(-c3nnc(SCC(=O)Nc4ccc(C(C)=O)cc4)o3)c3ccccc3n2)cc1 , value?
Outgoing: > 100 µM

----------
Tested on: SNB-75 CNS
assay.method.text: NCI tumour cell line growth inhibition, 48 h
endpoint: TGI (µM)
API: value field is a number in µM; no unit string.

# compound, endpoint.unit, TGI
rows = [
    ("CC(C)=CC1CC(C)C2(CCC3(C)CC4C(C(=O)CC4(C)O)/C(C=O)=C\\CC32)O1 (stereo unspecified)", "µM", 0.237),
]

Incoming: Query: TGI; subject: CCCCCCCCCCCCCCCCn1cc[n+](Cc2ccccc2)c1C
Outgoing: 0.899

Incoming: # TGI lookup, item COc1ccc(-c2ccccc2)cc1-c1c(Nc2cc(Cl)cc(Cl)c2O)c(=O)c1=O
Outgoing: 3.61

Incoming: Which TGI reading was recorded for the compound COc1ccccc1NC(=O)C1=C(C)NC(C)=C(C(=O)Nc2ccccc2OC)C1c1cccc2c1OCO2 ?
Outgoing: 50.9

Incoming: Requested field: TGI. Item: CCCCCCOc1ccc(NC2=C(Cl)C(=O)c3ncccc3C2=O)cc1
Outgoing: 3.93

Incoming: Can you share its TGI? I mean this compound: OCCO[P+]1(OCCO)n2c3ccc2C(c2ccccc2)=C2C=CC(=N2)C(c2ccccc2)=c2ccc(n21)=C(c1ccccc1)C1=NC(=C3c2ccccc2)C=C1
Outgoing: 0.273

Incoming: What does the record list as TGI for Cc1cc2nc3c4cccc(O)c4n(CCN(C)C)c3nc2cc1C ?
Outgoing: 11.1

Incoming: Looking for the measured TGI of C[C@H](CCC1=NCCN1)[C@H]1CC[C@H]2[C@@H]3CC[C@@H]4C[C@H](O)CC[C@]4(C)[C@H]3C[C@H](O)[C@]12C , can you help?
Outgoing: 13.5

Incoming: GET /values?readout=TGI&item= Cc1cc(C)c2c(N)c3cccc(C)c3nc2n1
Outgoing: 6.63

Incoming: Bench note: what TGI did O=C(/C=C\c1ccc2ccccc2n1)c1cc(Cl)ccc1O show?
Outgoing: 21
